Target Entity: Interferon-induced, double-stranded RNA-activated protein kinase (Homo sapiens, UniProt P19525)
Sequence (P19525 whole entry): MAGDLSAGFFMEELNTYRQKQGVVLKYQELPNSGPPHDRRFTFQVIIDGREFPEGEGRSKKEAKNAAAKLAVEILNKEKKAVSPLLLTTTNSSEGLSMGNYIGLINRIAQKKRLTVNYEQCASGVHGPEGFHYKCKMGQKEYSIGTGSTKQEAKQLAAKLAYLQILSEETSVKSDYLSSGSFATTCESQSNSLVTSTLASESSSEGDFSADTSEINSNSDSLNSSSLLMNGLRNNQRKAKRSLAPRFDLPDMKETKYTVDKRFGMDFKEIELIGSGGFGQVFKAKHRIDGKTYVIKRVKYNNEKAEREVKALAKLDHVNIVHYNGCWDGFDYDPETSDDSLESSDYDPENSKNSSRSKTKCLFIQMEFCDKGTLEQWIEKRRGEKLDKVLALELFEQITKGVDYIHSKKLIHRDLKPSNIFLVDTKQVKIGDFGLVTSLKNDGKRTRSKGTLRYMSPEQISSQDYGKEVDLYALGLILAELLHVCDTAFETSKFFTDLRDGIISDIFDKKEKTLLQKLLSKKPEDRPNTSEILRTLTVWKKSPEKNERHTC
Method: Inhibition of PKR (unknown origin)
Measurement Kind: IC50 (nM)

Worked examples, 2 molecules total:
{"Item Smiles": "CCn1cc(-c2ccc3c(c2)CCN3C(=O)Cc2cccc(OC(F)(F)F)c2)c2c(N)ncnc21", "Measurement Kind": "IC50", "Scale Unit": "nM", "Value": 116}
{"Item Smiles": "COCCO[C@H]1CC[C@H](n2nc(-c3ccc(Nc4nc5cc(Cl)cc(F)c5o4)cc3)c3c(N)ncnc32)CC1", "Measurement Kind": "IC50", "Scale Unit": "nM", "Value": 364}

I. O=C(Nc1cc(-c2ccccc2)[nH]n1)c1ccc(N2CCNC2=O)cc1
II. CC(=O)Cn1cc(-c2cnc(N)c3c(-c4ccc(NC(=O)Nc5cccc(C)c5)cc4)csc23)cn1
Qu. Of I and II , whose reported IC50 is numerically smaller? Answer = label.
Ans. II
(II: 306 nM, I: 3880 nM)
